Recorded pIC50 values (Human DYRK1B (Homo sapiens, UniProt Q9Y463)) are given below.
Give bare numbers, as −log10 of the molar value.

{"COMPOUND": "COc1cc2cc(C(=O)Nc3cc(C(=O)N(C)C)ccc3Cl)c(=O)[nH]c2cc1OC [Example 20]", "pIC50": 5.29}

Look at each compound and report its pIC50.
1. COC(=O)c1ccc(C)c(NC(=O)C2Cc3cc(OC)c(OC)cc3NC2=O)c1 (stereo not drawn) [Example 72]
2. COCCOc1cc2cc(C(=O)Nc3cc(C(=O)NC(CN)c4cccc(Cl)c4)ccc3Cl)c(=O)[nH]c2cc1OC (stereo not drawn) [Example 60]
3. COc1cc2cc(C(=O)Nc3cc(C(=O)NCc4ccccc4)ccc3C)c(=O)[nH]c2cc1OC [Example 42]
4. COc1cc2cc(C(=O)Nc3cc(-c4nnn[nH]4)ccc3C)c(=O)[nH]c2cc1OC [Example 22]

1: 5.74; 2: 7.66; 3: 6.49; 4: 6.14

---

Recorded pIC50 values (Human DYRK1A (Homo sapiens, UniProt Q13627)) are given below.
One number for each entry, as −log10 of the molar value.

// worked examples, pIC50 included
{"COMPOUND": "COCCOc1cc2cc(C(=O)Nc3cc(C(=O)OC)ccc3C)c(=O)[nH]c2cc1OCCOC", "pIC50": 6.22}
{"COMPOUND": "COCCOc1cc2cc(C(=O)Nc3cc(C(=O)N[C@H](CCN)c4ccccc4)ccc3C)c(=O)[nH]c2cc1OC (single isomer, unassigned)", "pIC50": 8.05}
{"COMPOUND": "COc1cc2cc(C(=O)Nc3cc(C(=O)N[C@H](CO)c4ccccc4)ccc3C)c(=O)[nH]c2cc1OC", "pIC50": 6.73}
{"COMPOUND": "COc1cc2cc(C(=O)Nc3cc(C(=O)N(C)C)ccc3Cl)c(=O)[nH]c2cc1OC", "pIC50": 5.95}
{"COMPOUND": "COCCOc1cc2cc(C(=O)Nc3cc(C(=O)N[C@H](CCN)c4ccccc4)ccc3Cl)c(=O)[nH]c2cc1OC", "pIC50": 8.30}

Look at each compound and report its pIC50.
1. COc1cc2cc(C(=O)Nc3cc(C(=O)NC(CCN)c4ccccc4)ccc3C)c(=O)[nH]c2cc1OC (stereo in doubt) [Example 47]
2. COC(=O)c1ccc(Cl)c(NC(=O)C2Cc3cc(OC)c(OC)cc3NC2=O)c1 (stereo not drawn)
3. COc1cc2cc(C(=O)Nc3cc(C(=O)NCCCN4CCOCC4)ccc3C)c(=O)[nH]c2cc1OC
4. COc1cc2cc(C(=O)Nc3ccncc3Cl)c(=O)[nH]c2cc1OC
5. COCCOc1cc2cc(C(=O)Nc3cc(C(=O)NCc4cccc(Cl)c4)ccc3C)c(=O)[nH]c2cc1OC
6. COc1cc2cc(C(=O)Nc3cc(C(=O)NC(CCN)c4ccccc4)ccc3C)c(=O)[nH]c2cc1OC (stereo in doubt) [Example 48]

[7.07, 6.16, 5.44, 6.62, 6.93, 5.99]

---

ASSAYED SYSTEM: Human DYRK1B (Homo sapiens)
Construct: purchased Invitrogen PR8350B (former PV4649)
Sequence (Q9Y463 whole entry): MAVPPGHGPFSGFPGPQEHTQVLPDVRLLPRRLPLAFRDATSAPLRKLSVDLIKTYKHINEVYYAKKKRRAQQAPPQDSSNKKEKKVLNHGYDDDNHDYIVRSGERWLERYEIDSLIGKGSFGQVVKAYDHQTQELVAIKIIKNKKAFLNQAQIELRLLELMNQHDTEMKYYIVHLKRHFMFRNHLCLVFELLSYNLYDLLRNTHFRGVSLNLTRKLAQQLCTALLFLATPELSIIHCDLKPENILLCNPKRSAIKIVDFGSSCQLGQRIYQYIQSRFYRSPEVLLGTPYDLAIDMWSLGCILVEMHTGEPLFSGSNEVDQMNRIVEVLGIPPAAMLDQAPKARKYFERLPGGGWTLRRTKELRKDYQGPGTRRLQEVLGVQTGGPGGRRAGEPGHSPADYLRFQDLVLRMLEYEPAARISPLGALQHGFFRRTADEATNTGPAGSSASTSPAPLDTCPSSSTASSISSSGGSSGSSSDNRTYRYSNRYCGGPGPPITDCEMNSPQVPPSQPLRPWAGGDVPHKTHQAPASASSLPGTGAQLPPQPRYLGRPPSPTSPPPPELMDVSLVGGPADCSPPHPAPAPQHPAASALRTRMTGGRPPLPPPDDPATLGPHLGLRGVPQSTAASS
ASSAY PROTOCOL: DYRK1B Kinase TR-FRET (IMAP-Tb) Assay
Format: biochemical
CONDITION CONTEXT: 10 μM test compound; reported where IC50 was not determined; read-out: Enzyme DYRK1B % inhibition at 10 μM test compound concentration
# cutoff 40% applies to inhibition at 10 µM; >= gives rule met, < gives rule not met

Reference set (5 entries):
{"MOLECULE": "COC(=O)c1ccc(Cl)c(NC(=O)c2cc3cc(OC)c(OC)cc3[nH]c2=O)c1", "ASSAYED SYSTEM": "Human DYRK1B (Homo sapiens)", "DISCRETE LABEL": "rule met"}
{"MOLECULE": "COc1cc2cc(C(=O)Nc3ccncc3Cl)c(=O)[nH]c2cc1OC", "ASSAYED SYSTEM": "Human DYRK1B (Homo sapiens)", "DISCRETE LABEL": "rule not met"}
{"MOLECULE": "COc1cc2cc(C(=O)Nc3cc(C(=O)NC(CO)C(C)C)ccc3C)c(=O)[nH]c2cc1OC (centres unmarked)", "ASSAYED SYSTEM": "Human DYRK1B (Homo sapiens)", "DISCRETE LABEL": "rule not met"}
{"MOLECULE": "COc1cc2cc(C(=O)Nc3cc(C(=O)N[C@@H](CO)CC(C)C)ccc3C)c(=O)[nH]c2cc1OC", "ASSAYED SYSTEM": "Human DYRK1B (Homo sapiens)", "DISCRETE LABEL": "rule not met"}
{"MOLECULE": "COc1cc2cc(C(=O)Nc3cc(C(=O)NCc4cccc(Cl)c4)ccc3C)c(=O)[nH]c2cc1OC", "ASSAYED SYSTEM": "Human DYRK1B (Homo sapiens)", "DISCRETE LABEL": "rule not met"}

Please tell me: is the molecule `COc1cc2cc(C(=O)Nc3cc(C(=O)N[C@H](CO)CC(C)C)ccc3C)c(=O)[nH]c2cc1OC` at or over 40% in terms of inhibition at 10 µM? rule not met

Please tell me: is the molecule `COc1cc2cc(C(=O)Nc3cc(-c4ncco4)ccc3C)c(=O)[nH]c2cc1OC` at or over 40% in terms of inhibition at 10 µM? rule met
